These measurements were taken from PubChem BioAssay (NCATS).

Tested on: CP211
Assay Text: qHTS profiling for inhibitors of Plasmodium falciparum proliferation (AID 504749); further: nearly all actives have a fitted effect of over 60% in size
Condition: P. falciparum in erythrocytes, SYBR Green DNA, 72 h; series mostly up to 28.7 µM
Results filed as inconclusive are left out. Calls of active or inactive are those of the source. The call rests on the fitted dose curve; in most records, active means well fitted inhibition curve with a large enough effect; inconclusive means small, poorly fitted or top-dose-only effect; inactive means flat fitted curve, though single readings scatter.
Can you answer with just one of these options? active, inactive

1) CCOCC(O)COc1ccc(NC(=O)CC[S+](C)C)cc1 (stereo unspecified) ... inactive
2) N[C@@H](C(=O)N[C@@H]1C(=O)N2C(C(=O)O)=C(Cl)CS[C@H]12)c1ccccc1 ... inactive
3) CN(CCOc1ccc(CC2SC(=O)NC2=O)cc1)c1ccccn1 (stereo unspecified) ... inactive
4) Cc1noc(NS(=O)(=O)c2ccc(N)cc2)c1C ... inactive
5) CCCc1cc(C(N)=S)ccn1 ... inactive
6) CC(=O)Oc1ccccc1C(=O)Nc1ncc([N+](=O)[O-])s1 ... inactive

Q: What classification did C[C@]12C=CC(=O)C=C1CC[C@@H]1[C@@H]2C(=O)C[C@@]2(C)[C@H]1CC[C@]2(O)C(=O)CO end up with in this test?
Result: inactive

Q: Could you do the same for Cc1cccc(N(C)C(=S)Oc2ccc3ccccc3c2)c1 , please?
Result: inactive

Q: Could you do the same for CCC(C)(C)c1ccc(CC(C)CN2C[C@@H](C)O[C@@H](C)C2)cc1 (stereo partly specified) , please?
Result: inactive

Q: Could you do the same for CN(C)c1ccc(C(=C2C=CC(=[N+](C)C)C=C2)c2ccc(N(C)C)cc2)cc1 , please?
Result: active

Q: Could you do the same for CNC1CCCN(c2c(F)cc3c(=O)c(C(=O)O)cn(C4CC4)c3c2OC)C1 (stereo unspecified) , please?
Result: inactive
